All values here come from the nanobody polyreactivity screen of Harvey et al. (2022).

Assay: yeast display, Sf9 membrane polyspecificity reagent, FACS + sequencing; frameworks hold sequencing errors

- SEQUENCE_INPUT: "QVQLVESGGGLVQAGGSLRLSCAASGSIFSYYAMGRYRQAPGKEREIVAAISWSGGSTYYADSVKGRFTISRDNAKNTVYLQMNSLKPEDTAVYYCAAELSLSWLVPDVPYYYWGQGTQVTVSS"
  polyreactivity (PSR sort gate): "low polyreactivity"
- SEQUENCE_INPUT: "QVQLVESGGGLVQAGGSLRLSCAASGGTFDTYAMGWYRQAPGKERELVAGIDWSGGSTYYADSVKGRFTISRDNAKNTVYLQMNSLKPEDTAVYYCAADYYYPSQMDYWGQGTQVTVSS"
  polyreactivity (PSR sort gate): "low polyreactivity"
- SEQUENCE_INPUT: "QVQLVESGGGLVQAGGSLRLSCAASGSIFGDYVLGWYRQAPGKERELVASISESTDSTYYADSVKGRFTISRDNAKNTVYLQMNSLKPEDTAVYYCATAYPEWAVWGYDYWGQGTQVTVSS"
  polyreactivity (PSR sort gate): "low polyreactivity"
- SEQUENCE_INPUT: "QVQLVESGGGLVQAGGSLRLSCAASGRIFSVNAMGWYRQAPGKERELVASISWSGGSTYYADSVKGRFTISRDNAKNTVYLQMNSLKPEDTAVYYCARGYWVYYPDGDYWGQGTQVTVSS"
  polyreactivity (PSR sort gate): "low polyreactivity"
- SEQUENCE_INPUT: "QVQLVESGGGLVQAGGSLRLSCAASGSTIPRYAMGWYRQAPGKERELVAAISGRGGSTYYADSVKGRFTISRDNAKNSFYFQLISLKPEDTAVYYCNAYRRYYTMYYWGQGTQVTVSS"
  polyreactivity (PSR sort gate): "high polyreactivity"
- SEQUENCE_INPUT: "QVQLVESGGGLVQAGGSLRLSCAASGNTFYGYAMGWYRQAPGNERELVASITLSGDSTYYADSVKGRFTISRDNAKNTVYLQMNSLKPEDTAVYYCAGVYTYPLGYYHDTYDYWGQGTQVTVSS"
  polyreactivity (PSR sort gate): "low polyreactivity"
- SEQUENCE_INPUT: "QLQLVESGGGLVQAGGSLRLSSAASGSIFYEYTMGWYRQAPGKEREVVAVITSGGTTNYADSVKGRFTISRDNANNTDYLQMNSLKPEDTAFYYCNAVYRTSFQRGGGYWGQGTQVTVSS"
  polyreactivity (PSR sort gate): "high polyreactivity"
- SEQUENCE_INPUT: "QVQLVESAGGLVQAGGILRLSCAASGFTFYFYAMGWYRQSPGKERELVAAISRSGSRTYYADSVKGRFTISRDNAKNTVYLQMNSLKPEDTAVYYCARVRPRGLYFVLHYDYWGQGTQVTVSS"
  polyreactivity (PSR sort gate): "high polyreactivity"
- SEQUENCE_INPUT: "QVQLVESGGGLVQAGGSLRLSCAASGFIFGGNAMGWYRQAPGKERELVAAISSGGRTYYADSVKGRFTISRDNAKNTVYLQMNSLKPEDTAVYYCNAYSYHRGRDYWGQGTQVTVSS"
  polyreactivity (PSR sort gate): "low polyreactivity"
- SEQUENCE_INPUT: "QVQLVESGGGLVQAGGSLRLSCAASGSTFVRYAMGWYRQAPGKERELVAAISGGGSTSYADSVKGRFTISRDNAKNTVYLQMNSLKPEDTAVYFCAKAGYRSEFEYWGQGTQVTLSS"
  polyreactivity (PSR sort gate): "low polyreactivity"
- SEQUENCE_INPUT: "QVQLVESAGGLVQAGGSLRLSCAASGFIFFGNAMGWYRQAPGKERALVAVITWSGGSTYADSVKGRFTISRDNAKNPVYLQMNSLKPEDTAVYYSAADQQTWWQYSLINEYDYWGQGTQVTVTS"
  polyreactivity (PSR sort gate): "low polyreactivity"
